assay: Cytotoxicity against HEL cells assessed as reduction in cell growth after 3 to 5 days by Coulter counting analysis; type: cell-based; conditions: human
Entries whose CC50 is below 40 µM take Criterion met; entries at or above 40 µM take Criterion not met.

Quick check: CC50 of CCCCCCCC(=O)NCC#Cc1cn([C@H]2C[C@H](O)[C@@H](COP(=O)(N[C@@H](C)C(=O)OCC(C)C)Oc3cccc4ccccc34)O2)c(=O)[nH]c1=O (stereo partly specified) under 40 µM? Criterion met

Quick check: CC50 of CCCCCCCC(=O)NCC#Cc1cn([C@H]2C[C@H](O)[C@@H](COP(=O)(N[C@@H](C)C(=O)OCc3ccccc3)Oc3ccccc3)O2)c(=O)[nH]c1=O (stereo partly specified) under 40 µM? Criterion not met

Quick check: CC50 of Nc1nc2c(ncn2COCCO)c(=O)[nH]1 [ACYCLOVIR] under 40 µM? Criterion not met

Quick check: CC50 of CCCCCCCC(=O)NCC#Cc1cn([C@H]2C[C@H](O)[C@@H](CO)O2)c(=O)[nH]c1=O under 40 µM? Criterion not met

Quick check: CC50 of CCCCCCCC(=O)NCC#Cc1cn([C@H]2C[C@H](O)[C@@H](COP(=O)(N[C@@H](C)C(=O)OC)Oc3cccc4ccccc34)O2)c(=O)[nH]c1=O (stereo partly specified) under 40 µM? Criterion not met
